The reported numbers originate from patent US20240327534A1.

# tested_system: T1, human BCMA on BCMA expressing cell lines (human, UniProt Q02223 1-184)
# T1 sequence: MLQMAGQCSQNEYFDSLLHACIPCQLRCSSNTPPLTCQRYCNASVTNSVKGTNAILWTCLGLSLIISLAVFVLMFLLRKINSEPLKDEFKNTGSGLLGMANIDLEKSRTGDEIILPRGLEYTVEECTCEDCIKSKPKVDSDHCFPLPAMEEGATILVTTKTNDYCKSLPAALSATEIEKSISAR
# assay_name: cell-based or functional assay
Label Fulfilled when TDCC EC50 (EJM cells) >= 0.04 nM; otherwise Not fulfilled.

binder="BCMA targeting trispecific protein 01C07 (other, not shown: large carriers; small tags and cut ends, trispecific) VHH: EVQLVESGGGLVQPGRSLTLSCAASTNIFSIYPMGWYRQAPGKQRELVAAIHGFSTYYADSVKGRFTISRDNAKNSIYLQMNSLRPEDTALYYCNKVPWGSYHPRNVYWGQGTQVTVSS" label_value=Fulfilled
binder="BCMA targeting trispecific protein 01D04 (other, trispecific; not shown: anti-albumin domain, anti-CD3 domain and the linkers of the trispecific (TriTAC) chain; the C-terminal 6xHis tag follows these missing domains and is left out) VHH: EVQLVESGGGLVQPGRSLTLSCAASTNITSISPMGWYRQAPGKQRELVAAIHGVSTLYADSVKGRFTISRDNAKNSIYLQMNSLRPEDTALYYCNKVPWGDYHPRNVQWGQGTQVTVSS" label_value="Not fulfilled"
binder="BCMA targeting trispecific protein 01F08 (other, trispecific; not shown: the C-terminal 6xHis tag follows those domains and is left out) VHH: EVQLVESGGGLVQPGRSLTLSCAASTNITSVSPMGWYRQAPGKQRELVAAIHGPSTLYADSVKGRFTISRDNAKNSIYLQMNSLRPEDTALYYCNKVPWGDYHPTNVYWGQGTQVTVSS" label_value=Fulfilled
binder="BCMA targeting trispecific protein 01F04 (other, trispecific; not shown: the C-terminal His6 follows those missing domains and is left out) VHH: EVQLVESGGGLVQPGRSLTLSCAASTNIDSISPMGWYRQAPGKQRELVAAIHGFQTLYADSVKGRFTISRDNAKNSIYLQMNSLRPEDTALYYCNKVPWGDYHPGNVYWGQGTQVTVSS" label_value="Not fulfilled"
binder="BCMA targeting trispecific protein 02A08 (other, not shown: large carriers; small tags and cut ends, trispecific) VHH: EVQLVESGGGLVQPGRSLTLSCAASTNIFSRSPMGWYRQAPGKQRELVAAIHGESTLYADSVKGRFTISRDNAKNSIYLQMNSLRPEDTALYYCNKVPWGRYHPGNVYWGQGTQVTVSS" label_value="Not fulfilled"
binder="BCMA targeting trispecific protein 02A04 (other, trispecific; not shown: The C-terminal 6xHis tag is left out because it follows these missing domains) VHH: EVQLVESGGGLVQPGRSLTLSCAASTNIFSQSPMGWYRQAPGKQRELVAAIHGKSTLYADSVKGRFTISRDNAKNSIYLQMNSLRPEDTALYYCNKVPWGDYHPSNVYWGKGTQVTVSS" label_value="Not fulfilled"
binder="BCMA targeting trispecific protein 01E06 (other, not shown: large carriers; small tags and cut ends, trispecific) VHH: EVQLVESGGGLVQPGRSLTLSCAASTNIFSLSPMGWYRQAPGKQRELVAAIHGDSTLYADSVKGRFTISRDNAKNSIYLQMNSLRPEDTALYYCNKVPWGDYHPRNVYWGQGTQVTVSS" label_value="Not fulfilled"
binder="BCMA targeting trispecific protein 02H04 (other, trispecific; not shown: the C-terminal 6xHis tag follows those domains and is left out) VHH: EVQLVESGGGLVQPGRSLTLSCAASTNIFSVSPMGWYRQAPGKQRELVAAIHGNSTLYADSVKGRFTISRDNAKNSIYLQMNSLRPEDTALYYCNKVPWGDYHPRNVYWGQGTQVTVSS" label_value=Fulfilled
